biological target: Ghrelin receptor (Homo sapiens, UniProt Q92847); assay: Receptor Selection and Amplification Technology (R-SAT) assay; assay type: cell-based; design: expressed in transfected cells; host or cells: NIH3T3; conditions: read-out: RSAT Eff(%)
Sequence (Q92847 whole entry): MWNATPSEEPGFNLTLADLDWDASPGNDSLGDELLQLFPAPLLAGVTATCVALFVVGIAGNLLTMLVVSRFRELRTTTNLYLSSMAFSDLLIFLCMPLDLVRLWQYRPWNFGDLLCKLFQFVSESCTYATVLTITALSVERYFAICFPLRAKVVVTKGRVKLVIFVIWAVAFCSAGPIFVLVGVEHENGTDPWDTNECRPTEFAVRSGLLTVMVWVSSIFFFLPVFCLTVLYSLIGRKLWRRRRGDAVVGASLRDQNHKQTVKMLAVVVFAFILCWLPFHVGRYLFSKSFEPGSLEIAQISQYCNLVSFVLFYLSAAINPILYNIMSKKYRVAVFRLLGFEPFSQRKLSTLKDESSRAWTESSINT
The following compounds are shown together with reported Emax values.
The reply should be a number in %, with the unit left off.

Previously resolved entries follow.
>  <COMPOUND>
COc1cccc2c(C(C)=O)cn(CCCN3C4CCC3CC(O)(c3ccc(F)cc3)C4)c12 (stereo not drawn)

>  <NUMBER>
3

$$$$
>  <COMPOUND>
COc1cccc2c(C(C)=O)cn(CCCN3CCC(N4CCOCC4)CC3)c12

>  <NUMBER>
95

$$$$
>  <COMPOUND>
COc1cccc2c(C(C)=O)cn(CC(C)CN3CCC(c4nc(-c5ccncc5)no4)CC3)c12 (stereo not drawn)

>  <NUMBER>
78

$$$$
>  <COMPOUND>
CCCCC[C@H]1C[C@H]2CC[C@@H](C1)N2CCCn1cc(C(C)=O)c2cccc(Cl)c21

>  <NUMBER>
72

$$$$
>  <COMPOUND>
CC(=O)c1cn(CCCNCCOc2ccccc2)c2c(Br)cccc12

>  <NUMBER>
132

$$$$

Attention now turns to another entry.
Return reported Emax; argument: "CC(=O)c1cn(CCCN2CCN(c3nc(-c4cccnc4)no3)CC2)c2c(C)cccc12"
110

These data points were gathered from patent US20070213359A1.
